Measured values drawn from patent US20070020744A1 for this set.

Test system: β-glycosidase
Experiment: Relative activity on nitrophenyl-sugar substrates: β-glycosidase
Assay type: biochemical, Penicillium multicolor
Details: 100 units arbitrarily chosen for the substrate on which β-glycosidase exhibited the most activity
Measured Attribute: relative activity of β-glycosidase for the substrate (activity units)
Give just the number in activity units; leave the unit off.

-- ask Look at this molecule and give its reported relative activity of β-glycosidase for the substrate. O=[N+]([O-])c1ccc(O[C@H]2O[C@H](CO)[C@H](O)[C@H](O)[C@H]2O)cc1 [4-Nitrophenyl α-D-galactopyranoside]
-- reply 100

-- ask Look at this molecule and give its reported relative activity of β-glycosidase for the substrate. O=[N+]([O-])c1ccc(O[C@H]2O[C@H](CO)[C@@H](O)[C@H](O)[C@H]2O)cc1 [4-Nitrophenyl α-D-glucopyranoside]
-- reply 19

-- ask Look at this molecule and give its reported relative activity of β-glycosidase for the substrate. O=[N+]([O-])c1ccc(O[C@@H]2O[C@H](CO)[C@@H](O[C@H]3O[C@H](CO)[C@@H](O)[C@H](O)[C@H]3O)[C@H](O)[C@H]2O)cc1 [4-Nitrophenyl β-D-maltoside]
-- reply 57

-- ask Look at this molecule and give its reported relative activity of β-glycosidase for the substrate. O=[N+]([O-])c1ccc(O[C@@H]2OC[C@H](O)[C@H](O)[C@H]2O)cc1 [4-Nitrophenyl α-L-arabinopyranoside]
-- reply 60

-- ask Look at this molecule and give its reported relative activity of β-glycosidase for the substrate. O=[N+]([O-])c1ccc(O[C@@H]2O[C@H](CO)[C@H](O)[C@H](O)[C@H]2O)cc1 [4-Nitrophenyl β-D-galactopyranoside]
-- reply 85

-- ask Look at this molecule and give its reported relative activity of β-glycosidase for the substrate. O=[N+]([O-])c1ccc(O[C@@H]2O[C@H](CO)[C@@H](O)[C@H](O)[C@@H]2O)cc1 [4-Nitrophenyl β-D-mannopyranoside]
-- reply 12

---

I'd be grateful if you could share measured relative activity of β-glycosidase for the substrate for these entries.
System: β-glycosidase
Assay: Relative activity on nitrophenyl-sugar substrates: β-glycosidase
Assay type: biochemical, Penicillium multicolor
Conditions: 100 units arbitrarily chosen for the substrate on which β-glycosidase exhibited the most activity
Give just the number in activity units; leave the unit off.

-- ask Look at this molecule and give its reported relative activity of β-glycosidase for the substrate. O=C(O)[C@H]1O[C@@H](Oc2ccc([N+](=O)[O-])cc2)[C@H](O)[C@@H](O)[C@@H]1O [4-Nitrophenyl β-D-glucuronide]
-- reply 12

-- ask Look at this molecule and give its reported relative activity of β-glycosidase for the substrate. O=[N+]([O-])c1ccc(O[C@H]2O[C@H](CO)[C@@H](O)[C@H](O)[C@@H]2O)cc1 [4-Nitrophenyl α-D-mannopyranoside]
-- reply 19

-- ask Look at this molecule and give its reported relative activity of β-glycosidase for the substrate. O=[N+]([O-])c1ccc(O[C@@H]2O[C@H](CO)[C@@H](O[C@@H]3O[C@H](CO)[C@@H](O)[C@H](O)[C@H]3O)[C@H](O)[C@H]2O)cc1 [4-Nitrophenyl β-D-cellobioside]
-- reply 55

---

System: Protease M
Test: Relative activity on nitrophenyl-sugar substrates: Protease M
Type: biochemical, Aspergillus oryzae
Conditions: 100 units arbitrarily chosen for the substrate on which Protease M exhibited the most activity
Procedure: The relative activity of Protease M and β-glycosidase on different sugar substrates was assessed. A panel of substrates comprising a nitrophenyl group conjugated to different sugars was used in the study.
Binary classification by relative activity of Protease M for the substrate, with 6 activity units as an inclusive lower bound for class 1; all other cases are class 0.

-- ask Does O=[N+]([O-])c1ccc(O[C@H]2O[C@H](CO)[C@@H](O)[C@H](O)[C@@H]2O)cc1 [4-Nitrophenyl α-D-mannopyranoside] have a reported relative activity of Protease M for the substrate of at least 6 activity units?
-- reply class 0

-- ask Does O=C(O)[C@H]1O[C@@H](Oc2ccc([N+](=O)[O-])cc2)[C@H](O)[C@@H](O)[C@@H]1O [4-Nitrophenyl β-D-glucuronide] have a reported relative activity of Protease M for the substrate of at least 6 activity units?
-- reply class 0

-- ask Does O=[N+]([O-])c1ccc(O[C@@H]2O[C@H](CO)[C@@H](O[C@H]3O[C@H](CO)[C@@H](O)[C@H](O)[C@H]3O)[C@H](O)[C@H]2O)cc1 [4-Nitrophenyl β-D-maltoside] have a reported relative activity of Protease M for the substrate of at least 6 activity units?
-- reply class 1

-- ask Does O=[N+]([O-])c1ccc(O[C@@H]2O[C@H](CO)[C@H](O)[C@H](O)[C@H]2O)cc1 [4-Nitrophenyl β-D-galactopyranoside] have a reported relative activity of Protease M for the substrate of at least 6 activity units?
-- reply class 1

-- ask Does O=[N+]([O-])c1ccc(O[C@@H]2OC[C@H](O)[C@H](O)[C@H]2O)cc1 [4-Nitrophenyl α-L-arabinopyranoside] have a reported relative activity of Protease M for the substrate of at least 6 activity units?
-- reply class 1

-- ask Does O=[N+]([O-])c1ccc(O[C@@H]2O[C@H](CO)[C@@H](O)[C@H](O)[C@@H]2O)cc1 [4-Nitrophenyl β-D-mannopyranoside] have a reported relative activity of Protease M for the substrate of at least 6 activity units?
-- reply class 1

-- ask Does O=[N+]([O-])c1ccc(O[C@@H]2O[C@H](CO)[C@@H](O[C@@H]3O[C@H](CO)[C@@H](O)[C@H](O)[C@H]3O)[C@H](O)[C@H]2O)cc1 [4-Nitrophenyl β-D-cellobioside] have a reported relative activity of Protease M for the substrate of at least 6 activity units?
-- reply class 1

-- ask Does O=[N+]([O-])c1ccc(O[C@H]2O[C@H](CO)[C@@H](O)[C@H](O)[C@H]2O)cc1 [4-Nitrophenyl α-D-glucopyranoside] have a reported relative activity of Protease M for the substrate of at least 6 activity units?
-- reply class 1
